Tested Target: T1, mouse ACVR2A (mouse, UniProt P27038 20-135, limits assumed); note: test concentration or dose not given here
T1 construct: coated antigen of the initial ELISA
T1 sequence (P27038 20-135 limits assumed): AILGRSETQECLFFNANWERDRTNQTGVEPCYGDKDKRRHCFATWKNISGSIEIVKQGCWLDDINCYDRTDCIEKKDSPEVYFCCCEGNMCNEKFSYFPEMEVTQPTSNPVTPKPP
Test: ELISA
Provide the reported optical density of each item.
Numbers only, in OD.

{"Binder": "373_F08 (antibody, V domains shown, Group III) VH: EVQLLESGGGLVQPGGSLRLSCAASGFTFSSYSMNWVRQAPGKGLEWVSGINYNGGYTSYADSVKGRFTISRDNSKNTLYLQMNSLRAEDTAVYYCARGANWHDTALDYWGQGTLVTVSS VL: DIQMTQSPSSLSASVGDRVTITCRASQSILTYLNWYQQKPGKAPKLLIYAATSRASGVPSRFSGSGSGTDFTLTISSLQPEDFATYYCQQSYDTPLTFGGGTKVEIK", "Unit Info": "OD", "optical density": 3.7}
{"Binder": "374_G03 (antibody, V domains shown, Group III) VH: EVQLLESGGGLVQPGGSLRLSCAASGFTFSDYSMNWVRQAPGKGLEWVSGINYNGGYTSYADSVKGRFTISRDNSKNTLYLQMNSLRAEDTAVYYCARGANWHDTALDYWGQGTLVTVSS VL: DIQMTQSPSSLSASVGDRVTITCRASQSISSYLNWYQQKPGKAPKLVIYAATSRASGVPSRFSGSGSGTDFTLTISSLQPEDFATYYCQQSDDTPLTFGGGTKVEIK", "Unit Info": "OD", "optical density": 3.64}

Below is a list of binders. For each, state its recorded optical density.
1. 372_C06 (antibody, V domains shown, Group III) VH: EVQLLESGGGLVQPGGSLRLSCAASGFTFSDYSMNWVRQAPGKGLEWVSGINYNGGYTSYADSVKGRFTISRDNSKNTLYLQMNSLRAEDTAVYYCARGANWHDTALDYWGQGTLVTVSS VL: DIQMTQSPSSLSASVGDRVTITCRASQSIVSYVNWYQQKPGKAPKLLIYAATSRASGVPSRFSGSGSGTDFTLTISSLQPEDFATYYCQQSYSSPLTFGGGTKVEIK
2. 374_D03 (antibody, V domains shown, Group III) VH: EVQLLESGGGLVQPGGSLRLSCAASGFTFDSYSMNWVRQAPGKGLEWVAGINYNGGYKSYADSVKGRFTISRDNSKNTLYLQMNSLRAEDTAVYYCARGANWHDTHLDYWGQGTLVTVSS VL: DIQMTQSPSSLSASVGDRVTITCRASQSIVTYLNWYQQKPGKAPKLLIYAATSRASGVPSRFSGSGSGTDFTLTISSLQPEDFATYYCQQSYDTPLTFGGGTKVEIK

[3.54, 3.48]
